Recorded inhibition at 100 µM values for a group of compounds are listed next.
target_of_assay: hMAO-A (Homo sapiens, UniProt P21397)
Construct: purchased Sigma-Aldrich (Steinheim, Germany)
Sequence (P21397 whole entry): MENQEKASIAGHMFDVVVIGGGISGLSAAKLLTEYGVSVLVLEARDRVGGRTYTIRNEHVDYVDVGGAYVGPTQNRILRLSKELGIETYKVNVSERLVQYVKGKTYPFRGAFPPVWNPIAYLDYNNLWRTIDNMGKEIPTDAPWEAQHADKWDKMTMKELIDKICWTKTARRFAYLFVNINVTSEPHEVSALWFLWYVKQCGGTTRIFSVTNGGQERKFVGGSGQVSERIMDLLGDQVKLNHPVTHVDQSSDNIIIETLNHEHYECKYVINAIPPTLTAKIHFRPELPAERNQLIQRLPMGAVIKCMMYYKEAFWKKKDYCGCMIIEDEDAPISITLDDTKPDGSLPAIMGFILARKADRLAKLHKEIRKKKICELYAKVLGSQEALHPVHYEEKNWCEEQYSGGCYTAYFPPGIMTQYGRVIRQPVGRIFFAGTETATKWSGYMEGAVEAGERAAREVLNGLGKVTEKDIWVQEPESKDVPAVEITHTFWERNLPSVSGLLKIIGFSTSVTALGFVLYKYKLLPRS
assay_summary: MAO-A inhibition assay (in vitro fluorometric Amplex Red method)
Assay type: biochemical
cond: 10^−4 M
recorded_endpoint: inhibition at 100 µM

> print(dat)
                                    compound     recorded.endpoint  result
 1  C(=NNc1ccccc1)c1ccc(N2CCN(c3ccccc3)CC2)cc1  inhibition at 100 µM   43.2%
 2         CN1CCN(c2ccc(C=NNc3ccccc3)cc2)CC1  inhibition at 100 µM   88.9%
 3  CC1CCCCN1c1ccc(/C=N/Nc2ccccc2)cc1 (stereo not drawn)  inhibition at 100 µM   84.3%
 4        Fc1ccc(Sc2ccc(C=NNc3ccccc3)cc2)cc1  inhibition at 100 µM     21%
 5       Clc1ccc(Sc2ccc(C=NNc3ccccc3)cc2)cc1  inhibition at 100 µM   21.5%
 6        Fc1ccc(Oc2ccc(C=NNc3ccccc3)cc2)cc1  inhibition at 100 µM   20.4%
 7  COc1ccc(N2CCN(c3ccc(C=NNc4ccccc4)cc3)CC2)cc1  inhibition at 100 µM   40.2%
 8       COc1ccc(Oc2ccc(C=NNc3ccccc3)cc2)cc1  inhibition at 100 µM     25%
 9       COc1ccc(Sc2ccc(C=NNc3ccccc3)cc2)cc1  inhibition at 100 µM   26.7%
10          C(=NNc1ccccc1)c1ccc(-n2cncn2)cc1  inhibition at 100 µM     33%
11  O=C(NCCN1CCOCC1)c1ccc(Cl)cc1 [Moclobemide, reference compound]  inhibition at 100 µM   82.1%
12          C(=NNc1ccccc1)c1ccc(-n2ccnc2)cc1  inhibition at 100 µM   18.3%
